Sourced from patent US8309558B2

- System: HCV replicon cells
- testProtocol: HCV replicon FRET / luciferase assay (96-well plates)
- Type: cell-based
- particulars: Hepatitis C virus, Table 1b; HCV replicon; read-out: EC50
- Excerpt: FRET Assay Preparation. To perform the HCV FRET screening assay, 96-well cell culture plates were used. The FRET peptide (Anaspec, Inc.) (Taliani et al., Anal. Biochem. 1996, 240, 60-67) contains a fluorescence donor, EDANS, near one end of the peptide and an acceptor, DABCYL, near the other end. […] Assays. […] The plate was then placed into the Cytoflour 4000 instrument which had been set to 340 excite/490 emission, automatic mode for 20 cycles and the plate read in a kinetic mode. […]
Listed compounds paired with reported EC50

Solved entries:
CNC(=O)c1c(-c2ccc(F)cc2)oc2ccc(-c3cc(C(=O)NC4(c5ncccn5)CC4)ccc3C)cc12 [drawing 570] = < 250 nM
CNC(=O)c1c(-c2ccc(F)cc2)oc2ccc(-c3cccc(C(=O)NC4(c5ccccc5)CC4)c3OC)cc12 = > 10000 nM

Prompt: What reported EC50 corresponds to CNC(=O)c1c(-c2ccc(F)cc2)oc2ccc(-c3cccc(C(=O)NC(C)(C)c4nc(C)no4)c3)cc12 on HCV replicon cells?
Response: < 250 nM

Prompt: What reported EC50 corresponds to CNC(=O)c1c(-c2ccc(F)cc2)oc2ccc(-c3cc(C(=O)NC4(c5nnc(-c6cccc(Cl)c6)[nH]5)CC4)ccc3C)cc12 on HCV replicon cells?
Response: < 250 nM

Prompt: What reported EC50 corresponds to CNC(=O)c1c(-c2ccc(F)cc2)oc2ccc(-c3cc(C(=O)NC4(c5ncccn5)CC4)ccc3C)c(F)c12 [drawing 587] on HCV replicon cells?
Response: < 250 nM

Prompt: What reported EC50 corresponds to CNC(=O)c1c(-c2ccc(F)cc2)oc2ccc(-c3cc(C(=O)NC4(c5ccccn5)CC4)ccc3C)cc12 [drawing 425] on HCV replicon cells?
Response: < 250 nM

Prompt: What reported EC50 corresponds to CNC(=O)c1c(-c2ccc(F)cc2)oc2ccc(-c3cc(C(=O)NC4(c5cncnc5)CC4)ccc3C)cc12 on HCV replicon cells?
Response: < 250 nM

Prompt: What reported EC50 corresponds to CNC(=O)c1c(-c2ccc(F)cc2)oc2ccc(-c3cc(C(=O)NC4(c5ccccc5)CC4)ccc3C)cc12 [drawing 362] on HCV replicon cells?
Response: < 250 nM

Prompt: What reported EC50 corresponds to CNC(=O)c1c(-c2ccc(F)cc2)oc2cc(NS(C)(=O)=O)c(-c3cc(C(=O)NCC(C)C)ccc3OC)cc12 on HCV replicon cells?
Response: < 250 nM

Prompt: What reported EC50 corresponds to CNC(=O)c1c(-c2ccc(F)cc2)oc2ccc(-c3ccc(-c4cccc(CC#N)c4)c(C(=O)NCC(C)C)c3)cc12 on HCV replicon cells?
Response: < 250 nM

Prompt: What reported EC50 corresponds to CNC(=O)c1c(-c2ccc(F)cc2)oc2ccc(-c3cc(C(=O)NCC(C)C)ccc3OCCCN3CCN(C)CC3)cc12 on HCV replicon cells?
Response: < 250 nM

Prompt: What reported EC50 corresponds to CNC(=O)c1c(-c2ccc(F)cc2)oc2ccc(-c3cc(C(=O)NC4(c5ccccc5)CC4)ccc3OCCO)cc12 on HCV replicon cells?
Response: < 250 nM

Prompt: What reported EC50 corresponds to CNC(=O)c1c(-c2ccc(F)cc2)oc2ccc(-c3cc(C(=O)NC4(c5ccccn5)CC4)c(OC)cc3OCC(N)=O)cc12 on HCV replicon cells?
Response: < 250 nM

Prompt: What reported EC50 corresponds to CNC(=O)c1c(-c2ccc(F)cc2)oc2ccc(-c3cc(C(=O)NCC(C)C)ccc3OCCO)cc12 on HCV replicon cells?
Response: < 250 nM

Prompt: What reported EC50 corresponds to CNC(=O)c1c(-c2ccc(F)cc2)oc2ccc(-c3cc(C(=O)NC4(c5ccccn5)CC4)c(F)cc3Cl)cc12 on HCV replicon cells?
Response: < 250 nM

Prompt: What reported EC50 corresponds to CNC(=O)c1c(-c2ccc(F)cc2)oc2ccc(-c3cc(C(=O)NC4(c5ncccn5)CC4)c(C)cc3C)c(F)c12 on HCV replicon cells?
Response: < 250 nM
